Measured IPP screening %, Specific binding of individual entries
# measured_target: UniProt:Q12809
# Sequence (Q12809 whole entry): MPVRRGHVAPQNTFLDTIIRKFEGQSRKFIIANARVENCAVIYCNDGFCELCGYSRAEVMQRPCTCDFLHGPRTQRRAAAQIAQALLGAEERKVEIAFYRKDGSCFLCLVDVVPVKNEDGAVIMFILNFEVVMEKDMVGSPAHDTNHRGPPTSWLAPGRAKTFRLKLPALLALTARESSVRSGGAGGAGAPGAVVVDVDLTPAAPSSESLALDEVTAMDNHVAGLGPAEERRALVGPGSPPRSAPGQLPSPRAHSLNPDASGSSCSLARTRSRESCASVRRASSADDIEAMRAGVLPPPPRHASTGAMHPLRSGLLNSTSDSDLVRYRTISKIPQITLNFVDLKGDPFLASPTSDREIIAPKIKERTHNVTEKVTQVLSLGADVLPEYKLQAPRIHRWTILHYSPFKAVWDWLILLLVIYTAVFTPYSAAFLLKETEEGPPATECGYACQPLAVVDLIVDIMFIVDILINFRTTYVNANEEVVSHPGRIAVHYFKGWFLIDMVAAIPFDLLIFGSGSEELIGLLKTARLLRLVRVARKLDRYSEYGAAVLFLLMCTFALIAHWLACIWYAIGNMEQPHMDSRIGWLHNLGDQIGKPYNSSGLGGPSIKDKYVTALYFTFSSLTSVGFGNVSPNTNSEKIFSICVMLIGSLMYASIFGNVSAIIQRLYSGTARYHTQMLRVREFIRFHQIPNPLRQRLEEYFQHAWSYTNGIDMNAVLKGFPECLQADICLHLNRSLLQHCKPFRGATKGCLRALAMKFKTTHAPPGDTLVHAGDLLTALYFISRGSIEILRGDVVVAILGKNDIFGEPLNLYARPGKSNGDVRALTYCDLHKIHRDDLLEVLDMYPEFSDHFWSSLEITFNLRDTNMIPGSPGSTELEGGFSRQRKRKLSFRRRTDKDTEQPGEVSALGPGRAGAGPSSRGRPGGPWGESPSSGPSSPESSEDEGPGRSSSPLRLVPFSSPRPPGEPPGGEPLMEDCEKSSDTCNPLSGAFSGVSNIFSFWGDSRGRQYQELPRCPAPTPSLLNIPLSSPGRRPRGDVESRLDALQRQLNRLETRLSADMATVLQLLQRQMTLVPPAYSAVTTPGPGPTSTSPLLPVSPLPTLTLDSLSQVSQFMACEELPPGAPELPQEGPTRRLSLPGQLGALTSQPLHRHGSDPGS
# protocol_conditions: human, 100 µM

| compound | unit_name | IPP screening %, Specific binding |
| --- | --- | --- |
| CCCCCCC(O)CO (centres unmarked) | % | 14.6 |
| Nc1cc([N+](=O)[O-])cc(Cl)c1O | % | 10.7 |
| CCOc1cc(CCC(C)=O)ccc1O [Ethylzingerone, 4-(3-Ethoxy-4-hydroxyphenyl)butan-2-one] | % | 0.2 |
| Cc1c(O)cccc1O | % | 3.3 |
| O=C(O)c1ccc2c(c1)C(=O)OC2=O [Trimellitic anhydride] | % | -16.7 |

---

Measured IPP screening %, Specific binding of individual entries
# Test system: Tubulin (r)
# protocol: IPP Tubulin binding
# Parameters: species or system rat
# protocol_conditions: 100 uM; ligand/control Colchicine
Peptide text beside a SMILES is read from it.

| molecule | measured_target | IPP screening %, Specific binding, % |
| --- | --- | --- |
| CC(C)[C@H](N)C(=O)O | Tubulin (r) | 2.0 |
| CCN(CC)C(=O)c1cccc(C)c1 [DEET, N,N-Diethyl-3-methylbenzamide] | Tubulin (r) | -14.0 |
| CCOC(=O)c1ccc(N)cc1 [Benzocaine, Ethyl 4-aminobenzoate] | Tubulin (r) | 15.0 |
| Nc1cc([N+](=O)[O-])cc(Cl)c1O | Tubulin (r) | 5.0 |
| CC1(C)O[C@@H]2[C@@H](CO[C@@]3(COS(N)(=O)=O)OC(C)(C)O[C@@H]23)O1 [Topiramate] | Tubulin (r) | 5 |
| C[C@@H]1C[C@H]2[C@@H]3CCC4=CC(=O)C=C[C@]4(C)[C@@]3(F)[C@@H](O)C[C@]2(C)[C@@]1(O)C(=O)CO | Tubulin (r) | -8.0 |
| CCOc1cc(CCC(C)=O)ccc1O [Ethylzingerone, 4-(3-Ethoxy-4-hydroxyphenyl)butan-2-one] | Tubulin (r) | 16.0 |
| CC(C)Cc1ccc(C(C)C(=O)O)cc1 (stereo not drawn) | Tubulin (r) | -14.0 |
| CCCCCCC(O)CO (stereo not drawn) | Tubulin (r) | 3.0 |
| CCN(CC)CCNC(=O)c1cc(Cl)c(N)cc1OC [Metoclopramide] | Tubulin (r) | 0.0 |
| Nc1ccc(NCCO)c([N+](=O)[O-])c1 | Tubulin (r) | -13.0 |
| CC(C)(CO)C(O)C(=O)NCCCO (stereo not drawn) | Tubulin (r) | -5 |
| O=C(O)c1ccc2c(c1)C(=O)OC2=O [Trimellitic anhydride] | Tubulin (r) | 2 |
| COc1ccc(Cl)cc1C(=O)NCCc1ccc(S(=O)(=O)NC(=O)NC2CCCCC2)cc1 [Glybenclamide] | Tubulin (r) | 27.0 |
| CN(C)C(=N)N=C(N)N [Metformin, N,N-Dimethyltriimidodicarbonic diamide] | Tubulin (r) | 14.0 |
| O=S(=O)(O)NC1CCCCC1 [Cyclamate, Sodium cyclohexylsulfamate] | Tubulin (r) | 21.0 |
| COC(=O)[C@H](Cc1ccccc1)NC(=O)[C@@H](N)CC(=O)O [Aspartame] (H-Asp-Phe-OMe) | Tubulin (r) | -13.0 |
| O=P1(N(CCCl)CCCl)NCCCO1 (stereo not drawn) [Cyclophosphamide] | Tubulin (r) | -4.0 |
| CC(=O)Nc1ccc(O)cc1 [Paracetamol, N-(4-Hydroxyphenyl)acetamide] | Tubulin (r) | -2 |
| CC(=O)CC(c1ccccc1)c1c([O-])c2ccccc2oc1=O.[Na+] (stereo not drawn) | Tubulin (r) | 3.0 |
| Cc1c(O)cccc1O | Tubulin (r) | -14.0 |

Ref: paper PMC11879040
